meta.source: patent US20200392198A1

Please provide measured fold (EC50 vs native GIP) for the entries that follow.
SYSTEM UNDER TEST: T1, human GIP receptor (human, UniProt P48546 22-466)
T1 sequence (looked up): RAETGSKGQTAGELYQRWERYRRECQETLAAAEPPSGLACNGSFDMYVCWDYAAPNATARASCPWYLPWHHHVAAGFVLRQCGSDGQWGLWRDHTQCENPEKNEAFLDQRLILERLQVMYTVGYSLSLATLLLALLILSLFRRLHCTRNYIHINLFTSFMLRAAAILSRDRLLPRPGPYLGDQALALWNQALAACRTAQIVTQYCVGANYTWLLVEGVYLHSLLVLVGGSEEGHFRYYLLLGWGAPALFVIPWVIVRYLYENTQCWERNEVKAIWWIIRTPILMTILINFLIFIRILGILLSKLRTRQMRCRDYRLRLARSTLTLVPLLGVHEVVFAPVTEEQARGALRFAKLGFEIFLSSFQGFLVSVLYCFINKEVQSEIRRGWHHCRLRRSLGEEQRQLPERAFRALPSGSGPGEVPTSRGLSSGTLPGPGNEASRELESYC
PROCEDURE SUMMARY: cell-based or functional assay
Ends that are not written are not given here. * marks the point of attachment. Palmitoyl = CCCCCCCCCCCCCCCC(=O)*; Lauroyl = CCCCCCCCCCCC(=O)*
# output: bare number, implied unit fold

Inquiry: # return recorded fold (EC50 vs native GIP) for input HADGTFISDYSTILDNLAARDFINWLIQTK(Lauroyl)ITK [GIP-GLP-2 co-agonist 30]
Reply text: 7.1

Inquiry: # return recorded fold (EC50 vs native GIP) for input HADGTFISDYSTILDNLKARDFINWLIQTKITK [GIP-GLP-2 co-agonist 27]
Reply text: 6.2

Inquiry: # return recorded fold (EC50 vs native GIP) for input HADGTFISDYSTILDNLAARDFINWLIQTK(Palmitoyl)ITK [GIP-GLP-2 co-agonist 31]
Reply text: 19

Inquiry: # return recorded fold (EC50 vs native GIP) for input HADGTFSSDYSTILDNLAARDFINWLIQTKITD (not fully specified (residue 1, N-terminus); also: C16 acyl group on His 1 (attachment site not given here)) [GIP-GLP-2 co-agonist 22]
Reply text: 4.6

Inquiry: # return recorded fold (EC50 vs native GIP) for input HADGTFISDYSTILDNLAARDFINWLIQTKGK(Palmitoyl)K [GIP-GLP-2 co-agonist 36]
Reply text: 8.9
